Provenance of the data: patent US9896423B2

Entries annotated with measured AUC(0-t)
test_details: Pharmacokinetic test in rats, gavage administration
Assay type: in vivo, SD rats
cond: both sexes, Sprague-Dawley, rat, plasma, po, 20 mg/kg, gavage administration of 20 mg/kg, rats; read-out: AUC0-t in the rats' plasma
Give just the number in µg·h/mL; leave the unit off.

Cc1ccc(Sc2ccccc2N2CCNCC2)c(C)c1    0.489

We next turn to a different compound, shown below.
INPUT: Which AUC(0-t) value belongs to `[2H]C([2H])([2H])c1ccc(Sc2ccccc2N2CCNCC2)c(C([2H])([2H])[2H])c1` ?
OUTPUT: 0.583

###

test_details: Pharmacokinetic test in rats, intravenous injection
Type: in vivo, SD rats
cond: male, SD, rat, plasma, iv, 2 mg/kg, rats, iv 2 mg/kg, individual rats; read-out: t1/2 (converted)
parameter: half-life

Cc1ccc(Sc2ccccc2N2CCNCC2)c(C)c1 [YY]    5.72 h

Let us examine a further case.
INPUT: I would be grateful if you could share the reported half-life for [2H]C([2H])([2H])c1ccc(Sc2ccccc2N2CCNCC2)c(C([2H])([2H])[2H])c1 [XX] .
OUTPUT: 3.72 h

###

test_details: Pharmacokinetic test in rats, gavage administration
Format: in vivo, SD rats
cond: both sexes, Sprague-Dawley, rat, plasma, oral, 20 mg/kg, 20 mg/kg oral, 2 h, individual rats 1-6; read-out: Concentrations in Plasma of Rats after Oral Administration
parameter: concentration at 2 h (ng/mL)
Return type: number; implicit unit ng/mL.

INPUT: Returns the measured concentration at 2 h for the input compound. Input: `[2H]C([2H])([2H])c1ccc(Sc2ccccc2N2CCNCC2)c(C([2H])([2H])[2H])c1`
OUTPUT: 78.6

###

test_details: Pharmacokinetic test in rats, intravenous injection
Format: in vivo, SD rats
cond: male, Sprague-Dawley, rat, plasma, intravenous, 2 mg/kg, 2 mg/kg iv, 2 h, individual rats; read-out: Concentrations in Plasma of Rats after Intravenous Injection
parameter: concentration at 2 h
Please report the result as a number followed by the unit.

[2H]C([2H])([2H])c1ccc(Sc2ccccc2N2CCNCC2)c(C([2H])([2H])[2H])c1 [XX]    60.7 ng/mL

Proceed to the following item.
INPUT: Param item = Cc1ccc(Sc2ccccc2N2CCNCC2)c(C)c1 [YY] ; retrieve measured concentration at 2 h.
OUTPUT: 60.7 ng/mL

###

test_details: Pharmacokinetic test in rats, gavage administration
Type: in vivo, SD rats
cond: both sexes, Sprague-Dawley, rat, plasma, oral, 20 mg/kg, 20 mg/kg oral, 6 h, mean of 6 rats; read-out: Concentrations in Plasma of Rats after Oral Administration, Mean ± SD
Recorded concentration at 6 h, one value per entry.

Cc1ccc(Sc2ccccc2N2CCNCC2)c(C)c1    36.4 ng/mL

Read the next record carefully.
INPUT: Look at this compound and give its reported concentration at 6 h. `[2H]C([2H])([2H])c1ccc(Sc2ccccc2N2CCNCC2)c(C([2H])([2H])[2H])c1`
OUTPUT: 44.1 ng/mL

###

test_details: Pharmacokinetic test in rats, gavage administration
Assay type: in vivo, SD rats
cond: both sexes, Sprague-Dawley, rat, plasma, oral, 20 mg/kg, 20 mg/kg oral, 2 h, mean of 6 rats; read-out: Concentrations in Plasma of Rats after Oral Administration, Mean ± SD
Here the recorded concentration at 2 h is given for each entry.
Give the value in ng/mL but do not write ng/mL after it.

Cc1ccc(Sc2ccccc2N2CCNCC2)c(C)c1    92.1

INPUT: May I ask what concentration at 2 h has been recorded for `[2H]C([2H])([2H])c1ccc(Sc2ccccc2N2CCNCC2)c(C([2H])([2H])[2H])c1` ?
OUTPUT: 98.2
